target or system: Influenza Hemagglutinin B (influenza B virus)
test name: ELISA on Influenza Hemagglutinin B (1 ug/mL); 293 supernatant diluted 1:100
attribute measured: ELISA signal

>  <binder>
F1-04 (VHH) VHH: QVQLVESGGGLVQVGGSLRLSCAASERPSSNYAMGWFRQAPGKEQEFVAAIYWSGGGTAYGDSVKGRFTISKDNAKNTVYLQMNDLKPEDTGMYYCTTDHYGSWSYEYGSWGQGTQVTVSS

>  <attribute measured>
ELISA signal

>  <numeric value>
1.63

$$$$
>  <binder>
F2-24 (VHH) VHH: QVQLVESGGGLVQAGGSLRLSCASSGHTFNSYVMGWFRQAPGKEREFVAAIRPSGVSTYYADSVKGRFTISRDNAKNTVSLEMNSLKPEDTAVYYCAGDRDHSMMAVRRLSSYRQWGRGTQVTVSS

>  <attribute measured>
ELISA signal

>  <numeric value>
1.85

$$$$
>  <binder>
F2-02 (VHH) VHH: QVQLVESGGGLVQAGGSLRLSCAASGRTFRSFAMGWFRQAPGKEREFVATISWWSNNTYYADSVKGRFTISRDIAKNTVYLQMNSLKPEDTAVYYCAADLGPWLTAGQYDYWGQGTQVTVSS

>  <attribute measured>
ELISA signal

>  <numeric value>
0.863

$$$$
>  <binder>
F2-20 (VHH) VHH: QVQLVESGGGLVQAGGSLRLSCAASGRTFSRYAMGWFRQAPGKEREFVARISWSGDITYYADSVKGRFTISRDNAKNTVYLQMNSLKPEDTAVYYCAADAILRTRPPYESDYWGQGTQVTVSS

>  <attribute measured>
ELISA signal

>  <numeric value>
1.52

$$$$
